Where a name gives a salt, the structure may show the parent alone.
Measure Name: melting point

As a guide, the following entries are already answered.
Compound	melting point
CCCC(S)C(=O)NC1(C(=O)NC(Cc2c[nH]c3ccccc23)C(=O)O)CCCC1 (stereo not shown)	102 to 105 °C
O=C(O)[C@H](Cc1ccc(-c2ccccc2)cc1)NC(=O)C1(NC(=O)[C@@H](S)Cc2ccc3ccccc3c2)CCCC1 (stereo in doubt)	166 to 168 °C
O=C(NC1(C(=O)NC(Cc2ccc(C3CCCCC3)cc2)C(=O)O)CCCC1)C(S)Cc1ccccc1 (stereo not shown)	172 to 175 °C
CC[C@H](C)[C@H](S)C(=O)NC1(C(=O)NC(Cc2ccc(-c3cncnc3)cc2)C(=O)O)CCCC1 (stereo in doubt)	206 to 208 °C
CC[C@@H](C)[C@H](S)C(=O)NC1(C(=O)NC(Cc2ccc(-c3cncnc3)cc2)C(=O)O)CCCC1 (stereo in doubt) (as salt: hydrochloride)	170 to 184 °C
CSc1ccc(-c2ccc(C[C@H](NC(=O)C3(NC(=O)[C@@H](S)CC(C)C)CCCC3)C(=O)O)cc2)cc1 (stereo in doubt)	187 to 189 °C

Bench note: what melting point did CC(C)[C@H](S)C(=O)NC1(C(=O)N[C@@H](Cc2ccc3c(c2)CCCC3)C(=O)O)CCCC1 (stereo in doubt) show?
190 to 192 °C
